- Test system: MS2 coat protein
- procedure-summary: apparent KD of MS2 coat protein; higher = weaker reporter binding
- recorded-conditions: Eterna round: R107; input ligand: tryptophan 2.4 mM
quantity: apparent KD of MS2 coat protein (nM)
Entry rule: numbers only, all in nM.

Recorded results for 8 sequences are shown here.
>>> readout_value("AAUCGGGAUGGUCAAGGGUAUGCUAUAGAUACCAGUGCAGAGAAACACCCUUGGCAGCUGUGGAACAUGAGGAUCACCCAUGUAG [Theo A Ex t4]")
11.1
>>> readout_value("UCAUGCAGGUCGGCCGCCACUACACACAUGAGGAUCACCCAUGUAGUUACUGGGUGAAGUGGCAGUAGGACCGGGACCUGCAUAC [Brourdmod09]")
78
>>> readout_value("GGAGCUACGUCGGCCGCCACUAGCGGUAAUUACGUGUACAUGAGGAUCACCCAUGUAAUAUGGACUAGGACCGGGACGUAGCUCC [Salmon]")
12.2
>>> readout_value("AGCUCGCAAUCCUCAGCGUCAAAGACGCGUCGAGGACCGGUACGGCCGCCACUCGACAAGAGGAUCACCCUUGUCUAAGCGAGCA [TrypAX 5 #SwitchBubble #AlternativeMS2 #MS2Late #CuTurnoff]")
114
>>> readout_value("AGUCUUAUAGGAAGGAGCGCAUACUUCACAUGAGGAUCACCCAUGUCAAGACGUGAGUCAGUGCAGGUAGGUCGCCUAACUAAGA [Same State - Arginine B (Freestyle 13)]")
27.7
>>> readout_value("GCGGUGGUCGGAAGGAGCGACAUGAGGAUCACCCAUGUCUCCCGUUAUGGGAGUUCCUUAGGUCAGGUAGGUCGCCGACUGCCGC [#1 Exclusion - Arginine B Attempt #21 (Inspired by Omei)]")
227
>>> readout_value("AGAUGUAGCGGAAGGAGCGACUUGAGGAUCACCCAAGUCUCCCGUUGUGGGAGUUCCUUAGGUCAGGUAGGUCGCCGUUACGUCA [Omei Arg B SS B v3]")
82.8
>>> readout_value("AGCUCGCAUCCUCAAGCGUCAAAGACGCGUCGAGGACCGGUACGGCCGCCACUCGACCUGAGGAACACCCAGGUCCUCGCGAGCA [TrypAX 7 #SwitchBubble #AlternativeMS2 #MS2Late #CuTurnoff]")
236

// apparent KD of MS2 coat protein lookup, key: "UGUAUGUGAUCUGAUACCAGAGUGAAUAAACCUGAGGAUCACCCUGGUACGCGAAAGCGACUCCCUUGGCAGCAGAUCGCAUACU"
156

Source of measurements: the supplement of paper PMC9170038
